Experiment: Initial cytotoxicity testing (MTT test), VA-13
Format: cell-based, human
Details: human healthy cells, MTT, 72 h, two concentrations 50–100 µM
Could you please report measured IC50 at 72 h for the items listed next?

Recorded IC50 at 72 h for C=C1CC[C@@H]2C(c3ccc(OC)cc3)=NO[C@@]2(C)CC[C@@H]2[C@@H]1CC2(C)C [Compound 17b] , please? < 50 µM

Okay, and C=C1CC[C@H]2C(c3cc(Br)ccc3O)=NO[C@]2(C)CC[C@@H]2[C@@H]1CC2(C)C [Compound 18b] ? 50 to 100 µM

Okay, and CC1(C)C[C@H]2[C@H]1CC[C@]1(C)[C@@H](CC[C@@]23CC(c2ccccc2)=NN3c2ccccc2)C(c2ccccc2)=NN1c1ccccc1 [Compound 29] ? > 50 µM

Okay, and C/C1=C\CC[C@@]2(CC(c3ccc(Cl)cc3)=NO2)[C@H]2CC(C)(C)[C@@H]2CC1 [Compound 16a] ? > 50 µM

Okay, and COc1cccc(OC)c1C1=NN(c2c(Cl)cc(Cl)cc2Cl)[C@]2(CC[C@H]3C(c4c(OC)cccc4OC)=NN(c4c(Cl)cc(Cl)cc4Cl)[C@]3(C)CC[C@@H]3[C@@H]2CC3(C)C)C1 [Compound 30] ? > 50 µM

Okay, and C=C1CC[C@@H]2C(c3ccc(Cl)cc3)=NO[C@@]2(C)CC[C@@H]2[C@@H]1CC2(C)C [Compound 16b] ? > 50 µM

Okay, and C/C1=C\CC[C@@]2(CC(c3ccccc3)=NN2c2ccccc2)[C@H]2CC(C)(C)[C@@H]2CC1 [Compound 22a] ? 50 to 100 µM

Okay, and CC1(C)C[C@H]2[C@H]1CC[C@@]1(C)ON=C(Br)[C@@H]1CC[C@@]21CC(Br)=NO1 [Compound 28] ? 50 to 100 µM

Okay, and CC1(C)C[C@H]2[C@H]1CC[C@]1(C)ON=C(c3ccc(Cl)cc3)[C@H]1CC[C@@]21CC(c2ccc(Cl)cc2)=NO1 [Compound 25] ? > 50 µM

Okay, and C/C1=C\CC[C@@]2(CC(Br)=NO2)[C@H]2CC(C)(C)[C@@H]2CC1 [Compound 19a] ? > 50 µM

Okay, and COc1ccc(C2=NO[C@]3(CC[C@@H]4C(c5ccc(OC)cc5)=NO[C@@]4(C)CC[C@@H]4[C@@H]3CC4(C)C)C2)cc1 [Compound 26] ? > 50 µM

Okay, and CC1=CCCC2(CC(c3cc(Br)ccc3O)=NO2)C2CC(C)(C)C2CC1 (stereo not shown) [Compound 18a] ? > 50 µM

Okay, and C=C1CC[C@@H]2C(C)=NN(c3ccccc3)[C@@]2(C)CC[C@@H]2[C@@H]1CC2(C)C [Compound 21b] ? > 50 µM

Okay, and C=C1CC[C@H]2C(c3ccccc3)=NN(c3ccccc3)[C@]2(C)CC[C@@H]2[C@@H]1CC2(C)C [Compound 22b] ? < 50 µM

Okay, and C=C1CC[C@H]2C(c3c(OC)cccc3OC)=NN(c3c(Cl)cc(Cl)cc3Cl)[C@]2(C)CC[C@@H]2[C@@H]1CC2(C)C [Compound 23b] ? > 50 µM

Okay, and COc1cccc(OC)c1C1=NN(c2c(Cl)cc(Cl)cc2Cl)[C@]2(CC/C=C(\C)CC[C@@H]3[C@@H]2CC3(C)C)C1 [Compound 23a] ? < 50 µM
